Molecular target: UniProt:O00574
Sequence (O00574 whole entry, looked up): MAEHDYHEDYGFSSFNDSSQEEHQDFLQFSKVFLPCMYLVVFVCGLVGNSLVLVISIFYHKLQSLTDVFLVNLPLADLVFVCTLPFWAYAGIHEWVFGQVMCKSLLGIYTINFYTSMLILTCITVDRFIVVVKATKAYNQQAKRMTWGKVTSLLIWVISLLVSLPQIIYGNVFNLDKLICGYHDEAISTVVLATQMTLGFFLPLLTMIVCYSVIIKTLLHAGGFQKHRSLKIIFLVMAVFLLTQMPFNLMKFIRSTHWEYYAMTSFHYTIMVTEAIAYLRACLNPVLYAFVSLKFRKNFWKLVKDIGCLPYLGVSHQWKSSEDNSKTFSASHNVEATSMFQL
Test: potency against CXCR6 with APJ panel – cell-based, beta-arrestin, DiscoveRx, uHTS hits, dose response (AID 624129)
Conditions: CXCR6 beta-arrestin (DiscoveRx) antagonist cell assay, CXCR6, run 1, dose range 2, at 80 µM (top of the series)
List of inhibition values.
parameterMeasured: inhibition (%)

>  <compound>
CN(C)c1nc(=NCc2cccs2)ss1

>  <parameterMeasured>
inhibition

>  <assayValue>
53

$$$$
>  <compound>
Oc1c(Cl)cc(Cl)c2cccnc12

>  <parameterMeasured>
inhibition

>  <assayValue>
90.2

$$$$
>  <compound>
COc1ccc(-n2c(O)c(/C=N/Nc3nc(C)cc(C)n3)c3ccccc3c2=O)cc1OC

>  <parameterMeasured>
inhibition

>  <assayValue>
118

$$$$
>  <compound>
O=C1C=CC(=O)N1c1ccccc1N1C(=O)C=CC1=O

>  <parameterMeasured>
inhibition

>  <assayValue>
42.9

$$$$
>  <compound>
Oc1c(I)cc(Cl)c2cccnc12

>  <parameterMeasured>
inhibition

>  <assayValue>
49.5

$$$$
>  <compound>
COc1ccc(CCN2C(=O)C=CC2=O)cc1OC

>  <parameterMeasured>
inhibition

>  <assayValue>
122

$$$$
>  <compound>
O=[N+]([O-])c1cc([N+](=O)[O-])c2cc3ccccc3nc2c1

>  <parameterMeasured>
inhibition

>  <assayValue>
-64.9

$$$$
>  <compound>
Cc1cccc(C(=O)Nc2ccc(C(=O)/C=C/c3ccncc3)cc2)c1

>  <parameterMeasured>
inhibition

>  <assayValue>
-26.4

$$$$
>  <compound>
CN(C)C(=O)CSc1cccc2cccnc12

>  <parameterMeasured>
inhibition

>  <assayValue>
-25

$$$$
>  <compound>
Cc1cccc(C)c1NC(=O)c1nc(S(=O)(=O)Cc2ccccc2)ncc1Cl

>  <parameterMeasured>
inhibition

>  <assayValue>
-9.6

$$$$
>  <compound>
COc1ccc(NC(=O)/C(Cl)=C(/Cl)S(=O)Cc2ccc(Cl)cc2)cn1 (configuration not stated)

>  <parameterMeasured>
inhibition

>  <assayValue>
-36.2

$$$$
>  <compound>
O=C(CN1CCN(S(=O)(=O)c2ccc(Br)cc2)CC1)Nc1ccc2c(c1)OCO2

>  <parameterMeasured>
inhibition

>  <assayValue>
100

$$$$
>  <compound>
Cc1cc(C)c2ccc(N)nc2c1O

>  <parameterMeasured>
inhibition

>  <assayValue>
-25.6

$$$$
>  <compound>
Cc1ccc2oc(/N=C(\N)NC(=O)C(C)(C)C)nc2c1

>  <parameterMeasured>
inhibition

>  <assayValue>
106

$$$$
>  <compound>
CN(C)c1nc(=NCc2ccco2)ss1

>  <parameterMeasured>
inhibition

>  <assayValue>
82.8

$$$$
>  <compound>
O=C(C#Cc1ccccc1)c1ccc([N+](=O)[O-])cc1

>  <parameterMeasured>
inhibition

>  <assayValue>
131

$$$$
>  <compound>
COc1ccccc1-c1cc(C(F)(F)F)nc(S(=O)(=O)CCCC(=O)NCc2ccc(F)cc2)n1

>  <parameterMeasured>
inhibition

>  <assayValue>
-37.9

$$$$
>  <compound>
O=[N+]([O-])c1cc(Cc2ccccc2)cc(C=Nc2ccc(N3CCOCC3)cc2)c1O

>  <parameterMeasured>
inhibition

>  <assayValue>
93.2

$$$$
>  <compound>
Cc1ccc(C(C[N+](=O)[O-])Sc2ccc(N)cc2)cc1 (configuration not stated)

>  <parameterMeasured>
inhibition

>  <assayValue>
157

$$$$
>  <compound>
CN(C(=O)CSC1=Nc2ccccc2C2=NC(c3ccccc3)C(=O)N12)C1CCCCC1 (configuration not stated)

>  <parameterMeasured>
inhibition

>  <assayValue>
-15.6

$$$$
>  <compound>
COC(CNC(=O)c1cc(C(=O)c2c(-c3c(Cl)cccc3Cl)noc2C)c[nH]1)OC

>  <parameterMeasured>
inhibition

>  <assayValue>
80.7

$$$$
>  <compound>
CC(=O)Nc1ccc(NCC(=O)c2ccccc2)cc1

>  <parameterMeasured>
inhibition

>  <assayValue>
62

$$$$
>  <compound>
Cc1ccc(C(=O)Sc2cccccc2=O)cc1

>  <parameterMeasured>
inhibition

>  <assayValue>
42.3

$$$$
>  <compound>
Cc1ccccc1Oc1cc(-n2ncc(Cl)c(Cl)c2=O)ncn1

>  <parameterMeasured>
inhibition

>  <assayValue>
105

$$$$
>  <compound>
On1ccccc1=S

>  <parameterMeasured>
inhibition

>  <assayValue>
51.2

$$$$
>  <compound>
Cc1ccc(-c2oc3ccccc3c(=O)c2O)cc1

>  <parameterMeasured>
inhibition

>  <assayValue>
28.7

$$$$
>  <compound>
O=C(CSc1nc(-c2ccco2)cc(C(F)(F)F)n1)NCCCn1ccnc1

>  <parameterMeasured>
inhibition

>  <assayValue>
126

$$$$
>  <compound>
O=C1C=CC(=O)N1c1ccc(-c2nc3ccccc3o2)cc1

>  <parameterMeasured>
inhibition

>  <assayValue>
128

$$$$
>  <compound>
O=[N+]([O-])c1ccc(S(=O)Cc2ccccc2)c([N+](=O)[O-])c1 (configuration not stated)

>  <parameterMeasured>
inhibition

>  <assayValue>
-36.3

$$$$
>  <compound>
O=[N+]([O-])c1ccc(S(=O)(=O)c2ccccc2)nc1

>  <parameterMeasured>
inhibition

>  <assayValue>
19.8

$$$$
>  <compound>
COc1ccc(C(=O)/C=C/C(=O)N(CC(=O)NC2CCCCC2)Cc2ccccc2)c(O)c1

>  <parameterMeasured>
inhibition

>  <assayValue>
9.34

$$$$
>  <compound>
Cc1ccc(S(=O)(=O)Nc2cccc3cccnc23)cc1

>  <parameterMeasured>
inhibition

>  <assayValue>
118

$$$$
>  <compound>
O=C1c2sc3nc4ccccc4n3c2C(=O)N1c1ccccc1Cl

>  <parameterMeasured>
inhibition

>  <assayValue>
103

$$$$
>  <compound>
O=[N+]([O-])c1c(Nc2ccccc2O)cc(Cl)c2nonc12

>  <parameterMeasured>
inhibition

>  <assayValue>
123

$$$$
>  <compound>
CC(=O)OCCNc1cc(SCc2ccco2)c2nonc2c1[N+](=O)[O-]

>  <parameterMeasured>
inhibition

>  <assayValue>
74.8

$$$$
>  <compound>
C=CCn1nc([N+](=O)[O-])nc1Sc1cccc2cccnc12

>  <parameterMeasured>
inhibition

>  <assayValue>
82.2

$$$$
>  <compound>
O=C(c1nnsc1S(=O)c1ccc(Cl)cc1)N1CCOCC1 (configuration not stated)

>  <parameterMeasured>
inhibition

>  <assayValue>
56.2

$$$$
>  <compound>
CC(C)(C)C(=O)NC(=S)NNC(=O)c1sc2ccccc2c1Cl

>  <parameterMeasured>
inhibition

>  <assayValue>
63.6

$$$$
>  <compound>
O=C1C=CC(=O)N1Cc1ccccc1

>  <parameterMeasured>
inhibition

>  <assayValue>
122

$$$$
>  <compound>
C=C(CN(C)C)C(=O)c1ccc(C)cc1C

>  <parameterMeasured>
inhibition

>  <assayValue>
90.5

$$$$
>  <compound>
CN(C)S(=O)(=O)c1cccc(NC(=O)CSc2cccc3cccnc23)c1

>  <parameterMeasured>
inhibition

>  <assayValue>
123

$$$$
>  <compound>
CCOc1ccc(NC(=O)CN(C)S(=O)(=O)c2cccs2)cc1

>  <parameterMeasured>
inhibition

>  <assayValue>
-28

$$$$
>  <compound>
O=C1c2ccccc2C(=O)N1OS(=O)(=O)c1ccc(F)cc1

>  <parameterMeasured>
inhibition

>  <assayValue>
69.8

$$$$
>  <compound>
COc1ccc([N+](=O)[O-])c(S(=O)(=O)c2ccccc2)n1

>  <parameterMeasured>
inhibition

>  <assayValue>
102

$$$$
>  <compound>
O=c1oc2ccccc2c(Cl)c1CN1CCCCC1

>  <parameterMeasured>
inhibition

>  <assayValue>
125

$$$$
>  <compound>
CC(=O)Nc1ccc(NC(=O)c2nc(S(=O)(=O)Cc3cccc(C)c3)ncc2Cl)cc1

>  <parameterMeasured>
inhibition

>  <assayValue>
23.1

$$$$
>  <compound>
O=[N+]([O-])c1ccc(Sc2cccc[n+]2[O-])c2nonc12

>  <parameterMeasured>
inhibition

>  <assayValue>
118

$$$$
